Reported IC50 values for the following molecules.
- Procedure Text: Anticancer activity human Hs683 cells assessed as growth inhibition by MTT colorimetric assay
- Type: functional, cell-based
- Condition Description: Hs 683

Entry Smiles: COc1ccc(-c2c(-c3ccc(C)cc3)n3nc(-c4ccccc4)c(CN4CCN(C)CC4)c3n2C)cc1
IC50: 18 µM

Query: Which IC50 value belongs to `COc1ccc(-c2c(-c3ccc(OC)cc3)n3nc(-c4ccccc4)cc3n2C)cc1` ?
Result: > 100 µM

Query: Look up IC50 for this molecule: `COc1ccc(-c2cn3nc(-c4ccccc4)c(C(=O)N4CCN(C)CC4)c3n2C)cc1`
Result: > 100 µM

Query: Query (molecule): `COc1ccc(-c2cn3nc(-c4ccccc4)c(C(=O)N4CCOCC4)c3n2C)cc1` ; field requested: IC50
Result: > 100 µM

Query: Please give the measured IC50 for this molecule: `COc1ccc(-c2c(-c3ccc(C(F)(F)F)cc3)n3nc(-c4ccccc4)cc3n2C)cc1`
Result: > 100 µM

====

- Test system: A549
- Procedure Text: Anticancer activity human A549 cells assessed as growth inhibition by MTT colorimetric assay
- Assay type: functional, cell-based
Exam item: assign met to entries whose IC50 is below 20 µM and not met to entries at or above 20 µM. Note that a value of exactly 20 µM receives not met.

Previously resolved entries follow.
Entry Smiles: COc1ccc(-c2c(-c3ccc(C)cc3)n3nc(-c4ccccc4)c(CN4CCCCC4)c3n2C)cc1
Assigned Class: not met
--
Entry Smiles: COc1ccc(-c2c(-c3ccc(C(F)(F)F)cc3)n(C)c3c(CN4CCOCC4)c(-c4ccccc4)nn23)cc1
Assigned Class: not met
--
Entry Smiles: COc1ccc(-c2c(-c3ccc(C(F)(F)F)cc3)n3nc(-c4ccccc4)c(CN4CCOCC4)c3n2C)cc1
Assigned Class: met
--
Entry Smiles: COc1ccc(-c2cn3nc(-c4ccccc4)c(C(=O)N4CCN(C)CC4)c3n2C)cc1
Assigned Class: not met
--
Entry Smiles: COc1ccc(-c2c(-c3ccncc3)n3nc(-c4ccccc4)c(CN4CCOCC4)c3n2C)cc1
Assigned Class: met

Query: Here's an entry: `COc1ccc(-c2cn3nc(-c4ccccc4)c(C(=O)N4CCOCC4)c3n2C)cc1` . Is its IC50 below 20 µM?
Result: not met

Query: Determine whether this compound shows IC50 lower than 20 µM (ties excluded): `COc1ccc(-c2cn3nc(-c4ccccc4)c(CN4CCOCC4)c3n2C)cc1`
Result: met

Query: Identify whether the compound `COc1ccc(-c2c(-c3ccc(C(F)(F)F)cc3)n3nc(-c4ccccc4)cc3n2C)cc1` records IC50 below 20 µM.
Result: not met

====

- Procedure Text: Anticancer activity human Hs683 cells assessed as growth inhibition by MTT colorimetric assay
- Type: functional, cell-based
- Condition Description: Hs 683
Measurement Name: IC50 (µM)
Give the number; µM is assumed, so skip it.

Record excerpt, results attached:
Entry Smiles: COc1ccc(-c2c(-c3ccccc3C#N)n3nc(-c4ccccc4)cc3n2C)cc1
IC50, µM: 26

Entry Smiles: COc1ccc(-c2c(-c3ccc(C(F)(F)F)cc3)n3nc(-c4ccccc4)c(CN4CCN(C)CC4)c3n2C)cc1
IC50, µM: 21

Entry Smiles: COc1ccc(-c2c(-c3cccc(C)c3)n3nc(-c4ccccc4)cc3n2C)cc1
IC50, µM: 59

Entry Smiles: COc1ccc(-c2c(-c3ccc(C)cc3)n3nc(-c4ccccc4)c(CN4CCCCC4)c3n2C)cc1
IC50, µM: 37

Entry Smiles: COc1ccc(-c2c(-c3ccncc3)n3nc(-c4ccccc4)c(CN4CCOCC4)c3n2C)cc1
IC50, µM: 3

Could you now consider this next molecule?
Query: If you can, please state the reported IC50 value of `COc1ccc(-c2c(-c3ccc(C(F)(F)F)cc3)n(C)c3c(CN4CCOCC4)c(-c4ccccc4)nn23)cc1` .
Result: 62

====

- System: A549
- Procedure Text: Anticancer activity human A549 cells assessed as growth inhibition by MTT colorimetric assay
- Type: functional, cell-based
Quick reference: pIC50 of the listed items.
The read-out pIC50 is expressed as -log10 of concentration in moles per litre.

Recorded results for 3 compounds are shown here.
Entry Smiles: COc1ccc(-c2c(-c3ccc(C(F)(F)F)cc3)n3nc(-c4ccccc4)c(CN4CCN(C)CC4)c3n2C)cc1
Numeric Readout: 4.70
//
Entry Smiles: COc1ccc(-c2c(-c3ccccc3C#N)n3nc(-c4ccccc4)cc3n2C)cc1
Numeric Readout: 4.66
//
Entry Smiles: COc1ccc(-c2c(-c3cccc(C)c3)n3nc(-c4ccccc4)cc3n2C)cc1
Numeric Readout: 4.51

Query: Which pIC50 is listed for `COc1ccc(-c2c(-c3ccc(C)cc3)n3nc(-c4ccccc4)c(CN4CCOCC4)c3n2C)cc1` ?
Result: 4.43

====

IC50 for assorted compounds
- Procedure Text: Anticancer activity human Hs683 cells assessed as growth inhibition by MTT colorimetric assay
- Type: functional, cell-based
- Condition Description: Hs 683
Quote the value and follow it with the unit of measurement.

Consider the following illustrative entries.
Entry Smiles: COc1ccc(-c2cn3nc(-c4ccccc4)c(CN4CCOCC4)c3n2C)cc1
Result: 5 µM
//
Entry Smiles: COc1ccc(-c2c(-c3ccc(C)cc3)n3nc(-c4ccccc4)c(CN4CCOCC4)c3n2C)cc1
Result: 48 µM

Okay, now this compound:
Query: I have this compound here, `COc1ccc(-c2c(-c3ccc(C(F)(F)F)cc3)n3nc(-c4ccccc4)c(CN4CCOCC4)c3n2C)cc1` , and I need its recorded IC50.
Result: 0.9 µM
